The origin of these recorded values is patent US10407422B2.

- tgt: myeloperoxidase (MPO) (Homo sapiens (Human), UniProt P05164)
- Sequence (P05164 49-745): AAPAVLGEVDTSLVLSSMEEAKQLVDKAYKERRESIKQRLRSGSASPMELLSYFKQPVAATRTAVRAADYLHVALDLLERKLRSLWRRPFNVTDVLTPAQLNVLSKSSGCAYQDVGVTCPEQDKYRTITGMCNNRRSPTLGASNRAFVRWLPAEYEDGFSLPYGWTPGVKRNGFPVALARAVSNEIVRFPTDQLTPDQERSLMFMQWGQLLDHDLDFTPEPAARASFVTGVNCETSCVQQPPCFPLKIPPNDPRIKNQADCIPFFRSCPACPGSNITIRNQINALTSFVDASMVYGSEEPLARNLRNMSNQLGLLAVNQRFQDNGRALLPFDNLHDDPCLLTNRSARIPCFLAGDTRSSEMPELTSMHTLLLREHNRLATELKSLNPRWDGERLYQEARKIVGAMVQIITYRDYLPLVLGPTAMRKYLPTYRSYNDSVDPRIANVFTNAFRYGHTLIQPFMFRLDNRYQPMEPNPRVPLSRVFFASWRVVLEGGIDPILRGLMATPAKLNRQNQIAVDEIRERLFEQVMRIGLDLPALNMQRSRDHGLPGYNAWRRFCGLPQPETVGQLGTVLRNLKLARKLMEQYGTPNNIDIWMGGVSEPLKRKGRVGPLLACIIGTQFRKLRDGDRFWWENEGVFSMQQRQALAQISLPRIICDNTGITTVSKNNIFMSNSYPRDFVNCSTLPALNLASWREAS
- method: MPO peroxidation assay (Amplex Red assay)
- Format: biochemical
- runConditions: potency range class
measureName: IC50

molecule | tgt | measureName | result
Nc1cc(Cc2cnn(Cc3cccc(N4CCN[C@@H](COCc5ccccc5)C4)c3)c2)c2nn[nH]c2n1 | myeloperoxidase (MPO) (Homo sapiens (Human), UniProt P05164) | IC50 | 101 to 999 nM
Nc1cc(Cc2cnn(Cc3cccc(N4CCNC(c5ccccc5)C4)c3)c2)c2nn[nH]c2n1 (centres unmarked) | myeloperoxidase (MPO) (Homo sapiens (Human), UniProt P05164) | IC50 | 101 to 999 nM
CN(C)CCNC(=O)c1ccc(Cn2cc(Cc3cc(N)nc4[nH]nnc34)cn2)cc1 | myeloperoxidase (MPO) (Homo sapiens (Human), UniProt P05164) | IC50 | 1 to 100 nM
Nc1cc(Cc2cnn(CC3CC4(CCNCC4)C3)c2)c2nn[nH]c2n1 | myeloperoxidase (MPO) (Homo sapiens (Human), UniProt P05164) | IC50 | 1 to 100 nM
Nc1cc(Cc2cnn(Cc3cccc(OCc4ccccc4)c3)c2)c2nn[nH]c2n1 | myeloperoxidase (MPO) (Homo sapiens (Human), UniProt P05164) | IC50 | 1 to 100 nM
Nc1cc(Cc2cnn(Cc3cccc(N4CCNCC4)c3)c2)c2nn[nH]c2n1 | myeloperoxidase (MPO) (Homo sapiens (Human), UniProt P05164) | IC50 | 1 to 100 nM
Nc1cc(Cc2cnn(Cc3cccc(-c4cnoc4)c3)c2)c2nn[nH]c2n1 | myeloperoxidase (MPO) (Homo sapiens (Human), UniProt P05164) | IC50 | 101 to 999 nM
COc1ccc(Cn2cc(Cc3cc(N)nc4[nH]nnc34)cn2)cn1 | myeloperoxidase (MPO) (Homo sapiens (Human), UniProt P05164) | IC50 | 1 to 100 nM

###

- tgt: myeloperoxidase (MPO) (Homo sapiens (Human))
- method: MPO chlorination assay (APF assay)
- Type: biochemical
- runConditions: potency range class
pIC50: −log10 of the molar value.

compound | pIC50
Cc1cc(-n2cc(Cc3cc(N)nc4[nH]nnc34)cn2)ccc1F | 6.00 to 7.00
Nc1cc(Cc2cnn(Cc3cc([C@@H]4CCNC4)ccc3C(F)(F)F)c2)c2nn[nH]c2n1 | 6.00 to 7.00
Nc1cc(Cc2cnn(CC3CCCCC3)c2)c2nn[nH]c2n1 | 7.00 to 9.00
Nc1cc(Cn2nnc3cc(Cc4ccccc4)ccc32)c2nn[nH]c2n1 | 6.00 to 7.00
Nc1cc(Cc2cnn(Cc3ccc(C(=O)NCc4cnco4)cc3)c2)c2nn[nH]c2n1 | 5.00 to 6.00
Nc1cc(Cc2cnn(Cc3cc(Cl)cc(-c4ccccc4)c3)c2)c2nn[nH]c2n1 | 6.00 to 7.00
Nc1cc(Cc2cnn(Cc3cc([C@@H]4CCNC4)cc(F)c3F)c2)c2nn[nH]c2n1 | 7.00 to 9.00
Nc1cc(Cc2cnn(Cc3cccc(C4CCNCC4(F)F)c3)c2)c2nn[nH]c2n1 (stereo not drawn) | 6.00 to 7.00
Nc1cc(Cc2cnn(Cc3ccc(CNC(=O)CN4CCCC4)cc3)c2)c2nn[nH]c2n1 | 6.00 to 7.00
Nc1cc(Cc2cnn(Cc3ccc(C(=O)NCc4cncnc4)cc3)c2)c2nn[nH]c2n1 | 6.00 to 7.00
Cn1nnc2cc(Cn3cc(Cc4cc(N)nc5[nH]nnc45)cn3)ccc21 | 6.00 to 7.00
Cc1cccc(-n2cc(Cc3cc(N)nc4[nH]nnc34)cn2)c1 | 6.00 to 7.00
Nc1cc(Cc2cnn(-c3cccc(Cl)c3)c2)c2nn[nH]c2n1 | 7.00 to 9.00
Nc1cc(Cc2cc(-c3ccccc3)no2)c2nn[nH]c2n1 | 6.00 to 7.00
Nc1cc(Cc2cnn(Cc3ccc4c(c3)C(F)(F)CNC4)c2)c2nn[nH]c2n1 | 6.00 to 7.00
CN(C)CCNC(=O)c1ccc(Cn2cc(Cc3cc(N)nc4[nH]nnc34)cn2)cc1 | 6.00 to 7.00
CC(CO)NC(=O)c1ccc(Cn2cc(Cc3cc(N)nc4[nH]nnc34)cn2)cc1 (stereo not drawn) | 6.00 to 7.00
Nc1cc(Cc2cnn(Cc3cccc(OCCC4CCc5ccccc54)c3)c2)c2nn[nH]c2n1 (stereo not drawn) | 6.00 to 7.00
